tgt: MERTK (UniProt Q12866)
Sequence (Q12866 whole entry, looked up): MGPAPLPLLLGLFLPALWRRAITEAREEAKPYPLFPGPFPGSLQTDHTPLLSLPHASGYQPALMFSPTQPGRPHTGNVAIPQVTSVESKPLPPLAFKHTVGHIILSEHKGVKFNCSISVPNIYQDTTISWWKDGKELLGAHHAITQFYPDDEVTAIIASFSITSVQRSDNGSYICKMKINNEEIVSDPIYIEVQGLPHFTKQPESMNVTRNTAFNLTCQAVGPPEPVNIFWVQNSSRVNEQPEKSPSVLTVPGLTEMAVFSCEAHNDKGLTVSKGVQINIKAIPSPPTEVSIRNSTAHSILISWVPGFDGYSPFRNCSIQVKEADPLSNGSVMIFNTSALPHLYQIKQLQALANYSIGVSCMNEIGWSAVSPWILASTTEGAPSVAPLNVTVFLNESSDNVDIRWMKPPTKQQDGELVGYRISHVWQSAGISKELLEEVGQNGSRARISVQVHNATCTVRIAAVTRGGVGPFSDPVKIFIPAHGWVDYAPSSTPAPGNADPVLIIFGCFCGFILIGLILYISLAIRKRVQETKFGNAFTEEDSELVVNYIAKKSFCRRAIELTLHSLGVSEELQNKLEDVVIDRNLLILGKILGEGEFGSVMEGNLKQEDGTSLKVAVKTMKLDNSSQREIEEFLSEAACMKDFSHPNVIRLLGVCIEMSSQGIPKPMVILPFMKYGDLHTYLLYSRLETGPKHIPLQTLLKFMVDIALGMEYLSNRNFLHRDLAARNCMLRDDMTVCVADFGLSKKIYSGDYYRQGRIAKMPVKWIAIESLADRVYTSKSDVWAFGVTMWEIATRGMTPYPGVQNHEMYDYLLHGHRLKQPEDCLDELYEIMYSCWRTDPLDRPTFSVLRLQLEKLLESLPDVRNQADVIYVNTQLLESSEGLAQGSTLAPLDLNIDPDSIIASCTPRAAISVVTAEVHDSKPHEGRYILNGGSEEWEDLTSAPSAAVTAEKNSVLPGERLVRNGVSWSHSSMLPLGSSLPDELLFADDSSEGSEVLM
protocol_text: phosphorylation enrichment, bacterial display (enrichment ratio); higher = better substrate or ligand; peptides without Tyr show the background;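 also: 11-residue human phosphosite peptides and single-mutation variants displayed on the E. coli surface, counted by deep sequencing, each peptide's frequency after selection divided by its frequency in the unselected input library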;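 also: frequency after pTyr selection over input frequency; kinase dosed for 20-30% of maximal phosphorylation in three min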
parameter: phosphorylation enrichment

sequence_content	tgt	parameter	reported_measurement
FETDFYQKGGK [INSR_Y1190_R1191Q_YF]	MERTK (UniProt Q12866)	phosphorylation enrichment	0.421
KKCTRYIDCDR [ASPA_Y64_L69R]	MERTK (UniProt Q12866)	phosphorylation enrichment	0.461
VIKDKYPKAHF [APTX_Y209_R213H_YF]	MERTK (UniProt Q12866)	phosphorylation enrichment	0.356
VLPIDYYFPPQ [AR_Y552]	MERTK (UniProt Q12866)	phosphorylation enrichment	2.47
GTVRDYPDFSP [ANXA3_Y15]	MERTK (UniProt Q12866)	phosphorylation enrichment	0.364
GEDPIYVTLEG [RTKtide_2018]	MERTK (UniProt Q12866)	phosphorylation enrichment	2.29
LLILEYAKYGS [RET_Y806_V804L]	MERTK (UniProt Q12866)	phosphorylation enrichment	0.392
ILDEAYVMAIV [EGFR_Y764_S768I]	MERTK (UniProt Q12866)	phosphorylation enrichment	0.454
PADQAYSWYQH [NDST1_Y711_R709Q]	MERTK (UniProt Q12866)	phosphorylation enrichment	3.75
QLPRGYISIPV [BAG3_Y205]	MERTK (UniProt Q12866)	phosphorylation enrichment	0.612
WISNRYPDFSS [PRPH2_Y184_L185P]	MERTK (UniProt Q12866)	phosphorylation enrichment	0.487
ILCTVYAFKTR [GRM3_Y754]	MERTK (UniProt Q12866)	phosphorylation enrichment	0.609
PSQRRNVYYYS [PTEN_Y174_Y174N]	MERTK (UniProt Q12866)	phosphorylation enrichment	4.42
KVGNEYVNKGQ [MYH7_Y410_T412N]	MERTK (UniProt Q12866)	phosphorylation enrichment	0.373
GRPLFYWLTGC [LYZL6_Y140]	MERTK (UniProt Q12866)	phosphorylation enrichment	0.469
FLLRVYSIFSK [SGCE_Y38_T36R]	MERTK (UniProt Q12866)	phosphorylation enrichment	0.634
VHNLDYFKETT [FGFR3_Y647_K650E_YF]	MERTK (UniProt Q12866)	phosphorylation enrichment	0.425
GFRVCYTPDSR [PTPRF_Y451_Y450C_YF]	MERTK (UniProt Q12866)	phosphorylation enrichment	0.419
EGLRRYLENGK [HLA-A_Y195_W191G]	MERTK (UniProt Q12866)	phosphorylation enrichment	0.52
IFETDYFRKGG [INSR_Y1189_YF]	MERTK (UniProt Q12866)	phosphorylation enrichment	0.436
GRPLSYWLTGC [LYZL6_Y140_F139S]	MERTK (UniProt Q12866)	phosphorylation enrichment	0.411
FGLQAYTEVKT [ALDH2_Y502_YF]	MERTK (UniProt Q12866)	phosphorylation enrichment	0.452
FGPPQYNIQFS [ERBB2IP_Y977_YF]	MERTK (UniProt Q12866)	phosphorylation enrichment	0.311
KYLENYLNRLL [PLD2_Y169]	MERTK (UniProt Q12866)	phosphorylation enrichment	0.478
QEGPEYWDQET [HLA-A_Y83]	MERTK (UniProt Q12866)	phosphorylation enrichment	0.66
MGSFNYLGFAW [SPTLC2_Y178_R183W_YF]	MERTK (UniProt Q12866)	phosphorylation enrichment	0.681
KDKLPYPYDDP [GPX2_Y125]	MERTK (UniProt Q12866)	phosphorylation enrichment	0.42
LHSEAYLKYIE [PBRM1_Y1610]	MERTK (UniProt Q12866)	phosphorylation enrichment	0.678
RKLVDYNSARH [BIN1_Y150_D151N]	MERTK (UniProt Q12866)	phosphorylation enrichment	0.393

The measurements presented in this section are drawn from the supplement of paper PMC10065799.
